The measured values listed here are drawn from patent US20100261620A1.

Biological target: IL-13 (Homo sapiens (Human), UniProt P35225 35-146, limits assumed)
Sequence (P35225 35-146 limits assumed): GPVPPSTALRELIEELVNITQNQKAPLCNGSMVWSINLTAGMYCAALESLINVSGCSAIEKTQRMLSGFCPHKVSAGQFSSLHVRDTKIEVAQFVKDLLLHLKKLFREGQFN
Experiment: Biacore
Below, each entry is listed with its recorded kon.
A number alone suffices; assume M⁻¹ s⁻¹.

Record excerpt, results attached:
- BINDER: "M471 (antibody, V domains shown, anti-IL-13, human IgG1) VH: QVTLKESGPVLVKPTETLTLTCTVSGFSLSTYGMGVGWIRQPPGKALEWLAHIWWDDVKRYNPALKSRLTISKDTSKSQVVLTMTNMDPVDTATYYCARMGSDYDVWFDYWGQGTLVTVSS VL: EIVLTQSPATLSLSPGERATLSCRASKSISKYLAWYQQKPGQAPRLLIYSGSTLQSGIPARFSGSGSGTDFTLTISSLEPEDFAVYYCQQPIDAPYTFGQGTKLEIK"
  MEASUREMENT_KIND: "kon"
  UNIT_TEXT: "M⁻¹ s⁻¹"
  NUMERIC_VALUE: "1.44e+06"
- BINDER: "M461 (antibody, V domains shown, anti-IL-13, human IgG1) VH: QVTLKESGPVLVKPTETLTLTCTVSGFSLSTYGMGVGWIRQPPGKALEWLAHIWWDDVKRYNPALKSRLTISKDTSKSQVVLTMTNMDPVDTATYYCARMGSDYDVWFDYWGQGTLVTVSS VL: EIVLTQSPATLSLSPGERATLSCRASKSISKYLAWYQQKPGQAPRLLIYSGSTLQSGIPARFSGSGSGTDFTLTISSLEPEDFAVYYCQQHSIGPYTFGQGTKLEIK"
  MEASUREMENT_KIND: "kon"
  UNIT_TEXT: "M⁻¹ s⁻¹"
  NUMERIC_VALUE: "1.33e+06"

Data point: M1286 (antibody, V domains shown) VH: QVTLKESGPVLVKPTETLTLTCTVSGFSLSTYGSGVGWIRQPPGKALEWLAHIWWDDVKRYNPALKSRLTISKDTSKSQVVLTMTNMDPVDTATYYCARLGSDYDVWFDYWGQGTLVTVSS VL: EIVLTQSPATLSLSPGERATLSCRASKSISKYLAWYQQKPGQAPRLLIYSGSTLQSGIPARFSGSGSGTDFTLTISSLEPEDFAVYYCQQHDYPYTFGQGTKLEIK ; kon = 1.28e+06
